# Test system: Digitaria sanguinalis (DIGSA)
# assayProcedure: Pre-emergence herbicidal action against DIGSA
# Format: in vivo
# experimentalContext: 80 g/ha, visual scoring after about 3 weeks vs untreated controls
reportedEndpoint: Pre-emergence action against DIGSA in % (%)
Numbers only, in %.

Check out these entries, answers already filled in.
molecule | assayTarget | Pre-emergence action against DIGSA in % (%)
COC(=O)CCOC(=O)COc1nn(-c2ccccn2)c(-c2ccc(F)nc2)c1Br | Digitaria sanguinalis (DIGSA) | 100
CC(C)=NOC(=O)COc1nn(-c2ncccc2F)c(-c2ccc(F)nc2)c1Br | Digitaria sanguinalis (DIGSA) | 100
COC(=O)C(C)COC(=O)COc1nn(-c2ccccn2)c(-c2cncc(F)c2)c1Cl (stereo not shown) | Digitaria sanguinalis (DIGSA) | 90

--- query ---
## Task Pre-emergence action against DIGSA in % for COC(=O)CCOC(=O)C(C)Oc1nn(-c2ccccn2)c(-c2ccc(F)nc2)c1C(F)(F)F (stereo not shown) ?
## Result 80

###

Can you tell me Pre-emergence action against MATIN in % for the items I'm about to list?
# System: Matricaria inodora (MATIN)
# assayProcedure: Pre-emergence herbicidal action against MATIN
# Format: in vivo
# experimentalContext: dosage 320 g/ha
# Text: Seeds of monocotyledonous and dicotyledonous weed plants and crop plants are placed in plastic or organic planting pots and covered with soil. […] After about 3 weeks, the effect of the preparations is scored visually in comparison with untreated controls as percentages. […]
Give bare numbers, in %.

Check out these entries, answers already filled in.
compound | Pre-emergence action against MATIN in %, %
CCOC(=O)COc1nn(-c2ccccn2)c(-c2ccc(F)nc2)c1Cl [Example I-100] | 80
COCCOC(=O)COc1nn(-c2ncccc2F)c(-c2ccc(F)nc2)c1Br | 100
O=C(O)COc1nn(-c2nc(F)ccc2F)c(-c2cncc(F)c2)c1Br | 90
CCOC(=O)COc1nn(-c2nc(F)ccc2F)c(-c2ccc(F)nc2)c1Cl | 90

--- query ---
## Task For the record "CCOC(=O)[C@@H](C)Oc1nn(-c2ccccn2)c(-c2ccc(F)nc2)c1Br" , what value of Pre-emergence action against MATIN in % is listed for Matricaria inodora (MATIN)?
## Result 90

###

Can you tell me Post-emergence action against ORYSA in % for the items I'm about to list?
# System: Oryza sativa (ORYSA)
# Assay type: in vivo
# experimentalContext: crop plant compatibility, 80 g/ha, effect in comparison to untreated controls
Give bare numbers, in %.

molSmiles | unitString | Post-emergence action against ORYSA in %
CCOC(=O)COc1nn(-c2cccc(C)n2)c(-c2ccc(F)nc2)c1Br | % | 10
COC(=O)CNC(=O)[C@@H](C)Oc1nn(-c2ccccn2)c(-c2cncc(F)c2)c1Cl | % | 20
C=C(COC(=O)[C@@H](C)Oc1nn(-c2ccccn2)c(-c2ccc(F)nc2)c1Cl)C(=O)OC | % | 10
CCOC(=O)COc1nn(-c2ncccc2C(F)(F)F)c(-c2ccc(F)nc2)c1Cl | % | 20
CS(=O)(=O)CCOC(=O)COc1nn(-c2ccccn2)c(-c2ccc(F)nc2)c1Br | % | 10
C[C@@H](Oc1nn(-c2ccccn2)c(-c2ccc(Cl)nc2)c1Br)C(=O)O | % | 0
O=C(O)COc1nn(-c2ccccn2)c(-c2cncc(F)c2)c1Br | % | 10

--- query ---
## Task Post-emergence action against ORYSA in % for "O=C(CSc1nn(-c2ccccn2)c(-c2cncc(F)c2)c1Br)NC1CC1" ?
## Result 0

Where do the numbers come from? From patent US20240041042A1.
